Condition Set: 338.15 K; 101.33 kPa; Liquid; Falling or rolling sphere viscometry
± gives the expanded uncertainty stated by the source.
Exercise: for every item that follows, state its recorded viscosity.

Entry CCCC[NH2+]CCO.O=C[O-] [N-(2-hydroxyethyl)butan-1-aminium formate] has what viscosity?
36.3 ± 2.1 mPa·s

Entry CCCC(=O)[O-].CCCC[NH2+]CCO [N-(2-hydroxyethyl)butan-1-aminium butyrate] has what viscosity?
55.2 ± 2.2 mPa·s

Entry CCC(=O)[O-].CCCC[NH2+]CCO [N-(2-hydroxyethyl)butan-1-aminium propionate] has what viscosity?
52.4 ± 2.2 mPa·s

Entry CCCCC(=O)[O-].CCCC[NH2+]CCO [N-(2-hydroxyethyl)butan-1-aminium pentanoate] has what viscosity?
57.9 ± 2.2 mPa·s

Entry CC(=O)[O-].CCCC[NH2+]CCO [N-(2-hydroxyethyl)butan-1-aminium acetate] has what viscosity?
42.9 ± 2.1 mPa·s

The origin of these recorded values is the NIST ThermoML archive (doi:10.1016/j.fluid.2016.07.022).
